Below, each entry is listed with its recorded Plant response rating.
Tested on: deadnettle (henbit deadnettle, Lamium amplexicaule)
Experiment: Test D pre-/postemergence controlled growth environment herbicide test
Type: in vivo
Conditions: Postemergence, 250 g ai/ha, scale 0 to 100

>  <COMPOUND_SMILES>
Cc1cc(=O)n(-c2ccc(F)cc2)nc1Cc1ccnc(C(F)(F)F)c1

>  <Plant response rating>
50

$$$$
>  <COMPOUND_SMILES>
Cc1cc(=O)n(-c2ccc(C(F)(F)F)cc2)nc1Cc1ccnc(C(F)(F)F)c1

>  <Plant response rating>
75

$$$$
>  <COMPOUND_SMILES>
Cc1cc(=O)n(-c2ccc(F)cc2)nc1Oc1ccnc(C(F)(F)F)c1

>  <Plant response rating>
80

$$$$
>  <COMPOUND_SMILES>
COc1cc(=O)n(-c2ccc(F)cc2)nc1Cc1ccnc(C(F)(F)F)c1

>  <Plant response rating>
98

$$$$
